Reported pEC50 values follow for various compounds
test system: UBE2M mutant KBM7 cells; assay: cells; format: cell-based; settings: Homo sapiens, KBM-7, read-out: KBM7_UBE2M_mut
A value of pEC50 is the negative decimal logarithm of a concentration given in moles per litre.

O=C(CSc1nc2ccccc2[nH]1)Nc1ccc(Cl)cn1: 4.61

*Q* What does the record list as pEC50 for "O=C(CSc1nc2ccccc2[nH]1)Nc1ccc(Br)cn1" ?
*A* 4.46

* * *

target: cyclin K (CCNK) (Homo sapiens, UniProt Q16531+Q9NYV4); construct: endogenous in cells; host or cells: KBM7 cells (WT and UBE2M/CUL4B/UBE2G1 mutant clones); assay: CCNK destabilization/degradation (expression proteomics and Western blot); type: cell-based; settings: CRISPR-inactivated KBM7 cells
Sequence (O75909 whole entry partner): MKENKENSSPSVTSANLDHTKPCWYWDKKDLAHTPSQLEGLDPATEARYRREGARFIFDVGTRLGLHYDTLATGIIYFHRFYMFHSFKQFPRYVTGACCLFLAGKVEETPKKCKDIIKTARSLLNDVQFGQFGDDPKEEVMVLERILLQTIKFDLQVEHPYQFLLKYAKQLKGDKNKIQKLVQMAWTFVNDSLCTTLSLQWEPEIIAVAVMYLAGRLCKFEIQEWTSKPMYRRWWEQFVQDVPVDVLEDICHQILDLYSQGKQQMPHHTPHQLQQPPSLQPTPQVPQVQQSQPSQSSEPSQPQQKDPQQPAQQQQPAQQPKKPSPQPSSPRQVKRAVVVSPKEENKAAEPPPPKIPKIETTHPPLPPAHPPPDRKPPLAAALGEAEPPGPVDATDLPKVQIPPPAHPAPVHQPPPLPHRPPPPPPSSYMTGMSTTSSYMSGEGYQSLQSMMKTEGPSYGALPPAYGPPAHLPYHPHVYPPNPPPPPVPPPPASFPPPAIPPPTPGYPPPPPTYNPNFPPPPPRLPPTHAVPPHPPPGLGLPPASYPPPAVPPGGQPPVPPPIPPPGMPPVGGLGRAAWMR
Sequence (Q9NYV4 whole entry): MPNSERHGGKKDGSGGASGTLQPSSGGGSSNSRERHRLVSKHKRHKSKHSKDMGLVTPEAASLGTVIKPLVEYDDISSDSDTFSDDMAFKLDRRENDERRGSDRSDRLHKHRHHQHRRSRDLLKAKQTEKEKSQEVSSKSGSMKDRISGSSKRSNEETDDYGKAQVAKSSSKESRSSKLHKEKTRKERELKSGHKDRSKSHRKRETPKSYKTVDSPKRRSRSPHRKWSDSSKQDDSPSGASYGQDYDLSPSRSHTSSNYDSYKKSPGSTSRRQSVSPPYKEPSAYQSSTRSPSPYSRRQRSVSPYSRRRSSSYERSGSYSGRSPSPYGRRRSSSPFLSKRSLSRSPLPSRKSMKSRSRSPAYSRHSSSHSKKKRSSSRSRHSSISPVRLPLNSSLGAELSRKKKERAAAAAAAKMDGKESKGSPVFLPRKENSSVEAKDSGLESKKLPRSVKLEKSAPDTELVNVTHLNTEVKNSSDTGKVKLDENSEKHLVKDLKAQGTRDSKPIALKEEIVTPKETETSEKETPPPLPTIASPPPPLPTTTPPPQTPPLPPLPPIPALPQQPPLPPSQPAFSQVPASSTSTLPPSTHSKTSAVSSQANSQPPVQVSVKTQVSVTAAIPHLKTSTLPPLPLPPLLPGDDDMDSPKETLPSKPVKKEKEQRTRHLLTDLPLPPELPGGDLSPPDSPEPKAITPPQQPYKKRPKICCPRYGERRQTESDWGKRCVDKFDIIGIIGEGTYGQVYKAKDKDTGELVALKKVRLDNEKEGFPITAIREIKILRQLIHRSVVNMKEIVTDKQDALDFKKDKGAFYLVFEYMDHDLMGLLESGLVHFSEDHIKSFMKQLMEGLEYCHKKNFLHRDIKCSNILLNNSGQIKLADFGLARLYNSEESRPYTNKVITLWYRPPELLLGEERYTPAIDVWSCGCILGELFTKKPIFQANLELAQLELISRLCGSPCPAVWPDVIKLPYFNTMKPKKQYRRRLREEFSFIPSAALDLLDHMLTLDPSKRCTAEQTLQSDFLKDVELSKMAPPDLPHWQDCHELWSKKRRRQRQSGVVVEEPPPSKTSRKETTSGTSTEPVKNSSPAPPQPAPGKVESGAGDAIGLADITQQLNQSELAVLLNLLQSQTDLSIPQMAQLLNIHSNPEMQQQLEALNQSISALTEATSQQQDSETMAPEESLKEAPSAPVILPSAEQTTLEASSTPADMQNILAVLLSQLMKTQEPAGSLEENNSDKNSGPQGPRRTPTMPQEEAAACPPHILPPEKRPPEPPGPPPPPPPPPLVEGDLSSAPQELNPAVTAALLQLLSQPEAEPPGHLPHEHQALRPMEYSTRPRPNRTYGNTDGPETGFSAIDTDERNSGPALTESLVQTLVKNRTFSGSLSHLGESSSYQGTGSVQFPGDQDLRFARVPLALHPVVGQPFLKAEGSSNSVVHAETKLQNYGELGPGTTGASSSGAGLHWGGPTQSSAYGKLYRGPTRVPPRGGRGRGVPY
Sequence (Q16531 2-1140 limits assumed): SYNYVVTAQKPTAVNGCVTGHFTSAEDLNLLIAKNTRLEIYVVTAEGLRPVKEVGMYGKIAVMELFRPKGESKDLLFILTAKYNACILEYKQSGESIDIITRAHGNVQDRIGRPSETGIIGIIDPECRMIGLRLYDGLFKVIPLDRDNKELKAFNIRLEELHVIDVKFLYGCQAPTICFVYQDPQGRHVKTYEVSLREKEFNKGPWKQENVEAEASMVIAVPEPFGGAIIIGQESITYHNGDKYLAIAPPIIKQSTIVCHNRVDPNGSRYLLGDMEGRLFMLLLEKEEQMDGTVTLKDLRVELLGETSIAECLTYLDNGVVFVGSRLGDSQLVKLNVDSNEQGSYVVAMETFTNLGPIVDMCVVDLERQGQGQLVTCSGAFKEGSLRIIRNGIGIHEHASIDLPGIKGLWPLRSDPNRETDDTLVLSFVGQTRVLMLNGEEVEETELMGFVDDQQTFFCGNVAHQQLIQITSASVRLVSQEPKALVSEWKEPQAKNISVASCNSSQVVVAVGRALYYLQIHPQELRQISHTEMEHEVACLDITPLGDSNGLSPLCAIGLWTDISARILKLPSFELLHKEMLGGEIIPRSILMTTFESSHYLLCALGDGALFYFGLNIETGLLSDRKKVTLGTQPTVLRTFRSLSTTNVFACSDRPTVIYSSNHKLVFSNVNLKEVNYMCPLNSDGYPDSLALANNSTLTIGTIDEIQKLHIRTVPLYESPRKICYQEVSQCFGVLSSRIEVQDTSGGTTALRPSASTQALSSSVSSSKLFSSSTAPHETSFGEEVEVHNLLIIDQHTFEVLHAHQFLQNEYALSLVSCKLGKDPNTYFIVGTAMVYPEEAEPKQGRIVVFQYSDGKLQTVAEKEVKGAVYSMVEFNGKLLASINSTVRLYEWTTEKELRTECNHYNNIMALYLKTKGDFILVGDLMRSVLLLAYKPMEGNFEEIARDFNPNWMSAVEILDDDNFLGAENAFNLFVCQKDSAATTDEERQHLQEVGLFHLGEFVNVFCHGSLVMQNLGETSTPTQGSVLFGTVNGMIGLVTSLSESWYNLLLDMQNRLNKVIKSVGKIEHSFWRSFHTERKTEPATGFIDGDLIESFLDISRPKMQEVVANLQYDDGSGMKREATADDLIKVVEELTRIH
Sequence (Q13620 whole entry partner): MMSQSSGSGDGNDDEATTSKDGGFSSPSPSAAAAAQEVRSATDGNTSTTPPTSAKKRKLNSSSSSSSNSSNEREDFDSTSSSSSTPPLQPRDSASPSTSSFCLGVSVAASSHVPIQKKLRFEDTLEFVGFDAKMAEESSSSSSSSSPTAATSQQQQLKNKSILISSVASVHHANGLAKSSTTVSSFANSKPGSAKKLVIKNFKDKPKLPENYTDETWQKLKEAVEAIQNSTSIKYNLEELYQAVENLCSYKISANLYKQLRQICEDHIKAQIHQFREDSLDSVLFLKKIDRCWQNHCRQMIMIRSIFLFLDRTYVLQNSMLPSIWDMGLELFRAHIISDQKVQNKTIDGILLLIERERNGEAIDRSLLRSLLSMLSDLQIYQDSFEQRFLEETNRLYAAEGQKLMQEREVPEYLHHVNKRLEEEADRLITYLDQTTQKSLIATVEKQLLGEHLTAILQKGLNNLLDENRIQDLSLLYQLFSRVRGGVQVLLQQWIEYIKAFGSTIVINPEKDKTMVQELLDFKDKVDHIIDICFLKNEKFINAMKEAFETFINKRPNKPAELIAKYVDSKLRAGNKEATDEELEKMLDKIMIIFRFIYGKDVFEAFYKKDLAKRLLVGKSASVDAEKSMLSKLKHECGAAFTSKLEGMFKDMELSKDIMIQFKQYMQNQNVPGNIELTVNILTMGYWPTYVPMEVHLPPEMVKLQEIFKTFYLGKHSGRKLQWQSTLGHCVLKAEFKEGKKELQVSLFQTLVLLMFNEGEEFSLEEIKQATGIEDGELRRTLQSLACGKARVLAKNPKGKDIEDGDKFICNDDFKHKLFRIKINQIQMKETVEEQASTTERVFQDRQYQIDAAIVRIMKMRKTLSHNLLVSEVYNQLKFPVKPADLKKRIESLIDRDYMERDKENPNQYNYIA
Sequence (P62877 whole entry partner): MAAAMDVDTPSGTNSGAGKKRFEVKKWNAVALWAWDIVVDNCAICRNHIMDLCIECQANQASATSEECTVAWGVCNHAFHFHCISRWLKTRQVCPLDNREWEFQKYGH
Measured quantity: effect on CCNK upon inactivation of DDB1, UBE2G1 and UBE2M

O=C(CSc1nc2ccccc2[nH]1)Nc1ccc(Cl)cn1 [IC021313.2]: abrogated
Cc1ccc(C(=O)N2CSCC2C(=O)N=c2[nH]cc(C)s2)o1 (stereo not shown) [Compound T6938051]: abrogated
O=C(CSc1nnc2c(n1)[nH]c1ccccc12)Nc1ccc(Cl)cn1 [IC020772.1]: abrogated

The values you see were collected from patent US12410152B2.
